- Test system: CN0375-F725-PDC KRAS spheroid viability
- Experiment Notes: Anticancer human tumor CN0375-F725-PDC patient-derived colon carcinoma cell line growth inhibition [KRAS2]; active = viability on the fitted dose curve at most 10% of control; inactive = the rest
- Conditions: second compound 10 µM; first compound 10 µM; spheroids with HUVEC and MSC
Labels: Y = active, N = inactive

{"columns": ["Molecule", "Group"],
 "data": [
  ["O=C(c1cc(Cc2n[nH]c(=O)c3ccccc23)ccc1F)N1CCN(C(=O)C2CC2)CC1 + C=CC(=O)N1CCN(c2nc(=O)n(-c3c(C)ccnc3C(C)C)c3nc(-c4c(O)cccc4F)c(F)cc23)C(C)C1", "N"],
  ["Cn1nccc1Nc1nccc(-c2cc3c(s2)C(C)(C)N(CCN2CCOCC2)C3=O)n1 + CNCc1ccccc1-c1csc(C(C)Nc2nc(C)nc3cc(OC)c(OC)cc23)c1", "Y"],
  ["CCNC(=O)CC1N=C(c2ccc(Cl)cc2)c2cc(OC)ccc2-n2c(C)nnc21 (centres undefined) + COc1cc2nc(C)nc(NC(C)c3cc(N)cc(C(F)(F)F)c3)c2cc1OC1CCOC1", "Y"],
  ["COc1cc(Nc2ncc3c(n2)-c2ccc(Cl)cc2C(c2c(F)cccc2OC)=NC3)ccc1C(=O)O + CNCc1ccccc1-c1csc(C(C)Nc2nc(C)nc3cc(OC)c(OC)cc23)c1", "Y"],
  ["CC1(C)CCC(CN2CCN(c3ccc(C(=O)NS(=O)(=O)c4ccc(NCC5CCOCC5)c([N+](=O)[O-])c4)c(Oc4cnc5[nH]ccc5c4)c3)CC2)=C(c2ccc(Cl)cc2)C1 + CNCc1ccccc1-c1csc(C(C)Nc2nc(C)nc3cc(OC)c(OC)cc23)c1", "Y"],
  ["CC(C)NCC(C(=O)N1CCN(c2ncnc3c2C(C)CC3O)CC1)c1ccc(Cl)cc1 (centres undefined) + COc1cc2nc(C)nc(NC(C)c3cc(N)cc(C(F)(F)F)c3)c2cc1OC1CCOC1", "Y"],
  ["CC(C)NCC(C(=O)N1CCN(c2ncnc3c2C(C)CC3O)CC1)c1ccc(Cl)cc1 (centres undefined) + C=CC(=O)N1CCN(c2nc(=O)n(-c3c(C)ccnc3C(C)C)c3nc(-c4c(O)cccc4F)c(F)cc23)C(C)C1", "N"],
  ["Cn1nccc1Nc1nccc(-c2cc3c(s2)C(C)(C)N(CCN2CCOCC2)C3=O)n1 + CC1OCC2(CCN(c3cnc(Sc4ccnc(N)c4Cl)c(N)n3)CC2)C1N", "N"],
  ["O=C(c1cc(Cc2n[nH]c(=O)c3ccccc23)ccc1F)N1CCN(C(=O)C2CC2)CC1 + CNCc1ccccc1-c1csc(C(C)Nc2nc(C)nc3cc(OC)c(OC)cc23)c1", "Y"],
  ["CC1(C)CCC(CN2CCN(c3ccc(C(=O)NS(=O)(=O)c4ccc(NCC5CCOCC5)c([N+](=O)[O-])c4)c(Oc4cnc5[nH]ccc5c4)c3)CC2)=C(c2ccc(Cl)cc2)C1 + C=CC(=O)N1CCN(c2nc(=O)n(-c3c(C)ccnc3C(C)C)c3nc(-c4c(O)cccc4F)c(F)cc23)C(C)C1", "N"],
  ["COC(=O)c1ccc2c(C(=Nc3ccc(N(C)C(=O)CN4CCN(C)CC4)cc3)c3ccccc3)c(O)[nH]c2c1 + COc1cc2nc(C)nc(NC(C)c3cc(N)cc(C(F)(F)F)c3)c2cc1OC1CCOC1", "Y"],
  ["O=C(c1cc(Cc2n[nH]c(=O)c3ccccc23)ccc1F)N1CCN(C(=O)C2CC2)CC1 + CC1OCC2(CCN(c3cnc(Sc4ccnc(N)c4Cl)c(N)n3)CC2)C1N", "N"],
  ["CC1OCC2(CCN(c3cnc(Sc4ccnc(N)c4Cl)c(N)n3)CC2)C1N (centres undefined) + CNCc1ccccc1-c1csc(C(C)Nc2nc(C)nc3cc(OC)c(OC)cc23)c1", "Y"],
  ["CC1(C)CCC(CN2CCN(c3ccc(C(=O)NS(=O)(=O)c4ccc(NCC5CCOCC5)c([N+](=O)[O-])c4)c(Oc4cnc5[nH]ccc5c4)c3)CC2)=C(c2ccc(Cl)cc2)C1 + CC1OCC2(CCN(c3cnc(Sc4ccnc(N)c4Cl)c(N)n3)CC2)C1N", "Y"],
  ["COC(=O)c1ccc2c(C(=Nc3ccc(N(C)C(=O)CN4CCN(C)CC4)cc3)c3ccccc3)c(O)[nH]c2c1 + CNCc1ccccc1-c1csc(C(C)Nc2nc(C)nc3cc(OC)c(OC)cc23)c1", "Y"],
  ["CCNC(=O)CC1N=C(c2ccc(Cl)cc2)c2cc(OC)ccc2-n2c(C)nnc21 (centres undefined) + C=CC(=O)N1CCN(c2nc(=O)n(-c3c(C)ccnc3C(C)C)c3nc(-c4c(O)cccc4F)c(F)cc23)C(C)C1", "N"],
  ["CC1OCC2(CCN(c3cnc(Sc4ccnc(N)c4Cl)c(N)n3)CC2)C1N (centres undefined) + COc1cc2nc(C)nc(NC(C)c3cc(N)cc(C(F)(F)F)c3)c2cc1OC1CCOC1", "Y"],
  ["Cn1nccc1Nc1nccc(-c2cc3c(s2)C(C)(C)N(CCN2CCOCC2)C3=O)n1 + COc1cc2nc(C)nc(NC(C)c3cc(N)cc(C(F)(F)F)c3)c2cc1OC1CCOC1", "Y"],
  ["CC1(C)CCC(CN2CCN(c3ccc(C(=O)NS(=O)(=O)c4ccc(NCC5CCOCC5)c([N+](=O)[O-])c4)c(Oc4cnc5[nH]ccc5c4)c3)CC2)=C(c2ccc(Cl)cc2)C1 + COc1cc2nc(C)nc(NC(C)c3cc(N)cc(C(F)(F)F)c3)c2cc1OC1CCOC1", "N"]
]}

* * *

- Test system: CN0375-F725-PDC KRAS spheroid viability
- Experiment Notes: Anticancer human tumor CN0375-F725-PDC cell line growth inhibition [KRAS2];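 also: spheroids exposed to agents for 7 days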
- Conditions: second compound 3.16 µM; first compound 0.0316 µM; stronger effect = lower value; spheroids with HUVEC and MSC
Decide using viability, T/C alone. Strictly below 30%: Criterion met. Equal to or above 30%: Criterion not met.

{"columns": ["Molecule", "Group"],
 "data": [
  ["COc1cc(Nc2ncc3c(n2)-c2ccc(Cl)cc2C(c2c(F)cccc2OC)=NC3)ccc1C(=O)O + C=CC(=O)N1CCN(c2nc(=O)n(-c3c(C)ccnc3C(C)C)c3nc(-c4c(O)cccc4F)c(F)cc23)C(C)C1", "Criterion not met"],
  ["CCN1CCN(Cc2ccc(Nc3ncc(F)c(-c4cc(F)c5nc(C)n(C(C)C)c5c4)n3)nc2)CC1 + CC1OCC2(CCN(c3cnc(Sc4ccnc(N)c4Cl)c(N)n3)CC2)C1N", "Criterion not met"],
  ["CC(=O)Nc1cccc(-n2c(=O)n(C3CC3)c(=O)c3c(Nc4ccc(I)cc4F)n(C)c(=O)c(C)c32)c1 + C=CC(=O)N1CCN(c2nc(=O)n(-c3c(C)ccnc3C(C)C)c3nc(-c4c(O)cccc4F)c(F)cc23)C(C)C1", "Criterion not met"],
  ["CC(C)NCC(C(=O)N1CCN(c2ncnc3c2C(C)CC3O)CC1)c1ccc(Cl)cc1 (stereo unspecified) + CNCc1ccccc1-c1csc(C(C)Nc2nc(C)nc3cc(OC)c(OC)cc23)c1", "Criterion met"],
  ["O=C(c1cc(Cc2n[nH]c(=O)c3ccccc23)ccc1F)N1CCN(C(=O)C2CC2)CC1 + CC1OCC2(CCN(c3cnc(Sc4ccnc(N)c4Cl)c(N)n3)CC2)C1N", "Criterion not met"],
  ["CCN1CCN(Cc2ccc(Nc3ncc(F)c(-c4cc(F)c5nc(C)n(C(C)C)c5c4)n3)nc2)CC1 + COc1cc2nc(C)nc(NC(C)c3cc(N)cc(C(F)(F)F)c3)c2cc1OC1CCOC1", "Criterion not met"],
  ["CN(C)C/C=C/C(=O)Nc1cc2c(Nc3ccc(F)c(Cl)c3)ncnc2cc1O[C@H]1CCOC1 + CC1OCC2(CCN(c3cnc(Sc4ccnc(N)c4Cl)c(N)n3)CC2)C1N", "Criterion not met"],
  ["CC1(C)CCC(CN2CCN(c3ccc(C(=O)NS(=O)(=O)c4ccc(NCC5CCOCC5)c([N+](=O)[O-])c4)c(Oc4cnc5[nH]ccc5c4)c3)CC2)=C(c2ccc(Cl)cc2)C1 + CC1OCC2(CCN(c3cnc(Sc4ccnc(N)c4Cl)c(N)n3)CC2)C1N", "Criterion not met"],
  ["CC(C)n1nc(-c2ccc3oc(N)nc3c2)c2c(N)ncnc21 + CNCc1ccccc1-c1csc(C(C)Nc2nc(C)nc3cc(OC)c(OC)cc23)c1", "Criterion met"],
  ["CC1COCCN1c1cc(-c2ccnn2C)c2ccnc(-c3ccn[nH]3)c2n1 (stereo unspecified) + CNCc1ccccc1-c1csc(C(C)Nc2nc(C)nc3cc(OC)c(OC)cc23)c1", "Criterion met"],
  ["CC1COCCN1c1cc(-c2ccnn2C)c2ccnc(-c3ccn[nH]3)c2n1 (stereo unspecified) + C=CC(=O)N1CCN(c2nc(=O)n(-c3c(C)ccnc3C(C)C)c3nc(-c4c(O)cccc4F)c(F)cc23)C(C)C1", "Criterion not met"]
]}

* * *

- Test system: CN0375-F725-PDC KRAS spheroid viability
- Experiment Notes: Anticancer human tumor CN0375-F725-PDC cell line growth inhibition [KRAS2]; active = viability on the fitted dose curve at most 10% of control; inactive = the rest;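 also: spheroids exposed to agents for 7 days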
- Conditions: second compound 10 µM; first compound 0.1 µM; spheroids with HUVEC and MSC
Labels: t (active), f (inactive)

{"columns": ["Molecule", "Test Target", "Group"],
 "data": [
  ["CC1OCC2(CCN(c3cnc(Sc4ccnc(N)c4Cl)c(N)n3)CC2)C1N (stereo not drawn) + CNCc1ccccc1-c1csc(C(C)Nc2nc(C)nc3cc(OC)c(OC)cc23)c1", "CN0375-F725-PDC KRAS spheroid viability", "t"],
  ["CC(=O)OC12COC1CC(O)C1(C)C(=O)C(O)C3=C(C)C(OC(=O)C(O)C(NC(=O)OC(C)(C)C)c4ccccc4)CC(O)(C(OC(=O)c4ccccc4)C21)C3(C)C (stereo not drawn) + COc1cc2nc(C)nc(NC(C)c3cc(N)cc(C(F)(F)F)c3)c2cc1OC1CCOC1", "CN0375-F725-PDC KRAS spheroid viability", "f"],
  ["CCNC(=O)CC1N=C(c2ccc(Cl)cc2)c2cc(OC)ccc2-n2c(C)nnc21 (stereo not drawn) + CNCc1ccccc1-c1csc(C(C)Nc2nc(C)nc3cc(OC)c(OC)cc23)c1", "CN0375-F725-PDC KRAS spheroid viability", "t"],
  ["Cn1ncnc1[C@H]1c2n[nH]c(=O)c3cc(F)cc(c23)N[C@@H]1c1ccc(F)cc1 + CC1OCC2(CCN(c3cnc(Sc4ccnc(N)c4Cl)c(N)n3)CC2)C1N", "CN0375-F725-PDC KRAS spheroid viability", "f"],
  ["CN(C)C/C=C/C(=O)Nc1cc2c(Nc3ccc(F)c(Cl)c3)ncnc2cc1O[C@H]1CCOC1 + COc1cc2nc(C)nc(NC(C)c3cc(N)cc(C(F)(F)F)c3)c2cc1OC1CCOC1", "CN0375-F725-PDC KRAS spheroid viability", "f"],
  ["COc1cc(Nc2ncc3c(n2)-c2ccc(Cl)cc2C(c2c(F)cccc2OC)=NC3)ccc1C(=O)O + COc1cc2nc(C)nc(NC(C)c3cc(N)cc(C(F)(F)F)c3)c2cc1OC1CCOC1", "CN0375-F725-PDC KRAS spheroid viability", "f"],
  ["CC1COCCN1c1cc(-c2ccnn2C)c2ccnc(-c3ccn[nH]3)c2n1 (stereo not drawn) + C=CC(=O)N1CCN(c2nc(=O)n(-c3c(C)ccnc3C(C)C)c3nc(-c4c(O)cccc4F)c(F)cc23)C(C)C1", "CN0375-F725-PDC KRAS spheroid viability", "f"],
  ["CCN1CCN(Cc2ccc(Nc3ncc(F)c(-c4cc(F)c5nc(C)n(C(C)C)c5c4)n3)nc2)CC1 + C=CC(=O)N1CCN(c2nc(=O)n(-c3c(C)ccnc3C(C)C)c3nc(-c4c(O)cccc4F)c(F)cc23)C(C)C1", "CN0375-F725-PDC KRAS spheroid viability", "f"],
  ["Cn1ncnc1[C@H]1c2n[nH]c(=O)c3cc(F)cc(c23)N[C@@H]1c1ccc(F)cc1 + COc1cc2nc(C)nc(NC(C)c3cc(N)cc(C(F)(F)F)c3)c2cc1OC1CCOC1", "CN0375-F725-PDC KRAS spheroid viability", "t"],
  ["CC(C)NCC(C(=O)N1CCN(c2ncnc3c2C(C)CC3O)CC1)c1ccc(Cl)cc1 (stereo not drawn) + CC1OCC2(CCN(c3cnc(Sc4ccnc(N)c4Cl)c(N)n3)CC2)C1N", "CN0375-F725-PDC KRAS spheroid viability", "f"],
  ["COc1cc2nccc(Oc3ccc(NC(=O)C4(C(=O)Nc5ccc(F)cc5)CC4)cc3)c2cc1OC + CNCc1ccccc1-c1csc(C(C)Nc2nc(C)nc3cc(OC)c(OC)cc23)c1", "CN0375-F725-PDC KRAS spheroid viability", "t"],
  ["CC(=O)OC12COC1CC(O)C1(C)C(=O)C(O)C3=C(C)C(OC(=O)C(O)C(NC(=O)OC(C)(C)C)c4ccccc4)CC(O)(C(OC(=O)c4ccccc4)C21)C3(C)C (stereo not drawn) + CNCc1ccccc1-c1csc(C(C)Nc2nc(C)nc3cc(OC)c(OC)cc23)c1", "CN0375-F725-PDC KRAS spheroid viability", "t"],
  ["CC1OCC2(CCN(c3cnc(Sc4ccnc(N)c4Cl)c(N)n3)CC2)C1N (stereo not drawn) + COc1cc2nc(C)nc(NC(C)c3cc(N)cc(C(F)(F)F)c3)c2cc1OC1CCOC1", "CN0375-F725-PDC KRAS spheroid viability", "f"]
]}
